Data provenance is patent US5773239A.

testTarget: lysosomal mannosidase
protocol: Lysosomal mannosidase assay (pH 5.0)
recordedConditions: para-nitrophenyl α-mannose
measurementName: IC50 (µM)
Just the number in µM, nothing appended.

Before answering, review these 2 worked examples.
What does the data say about its IC50? Entry: `OC[C@@H]1[C@H](O)[C@H](O)CN1CC1CC1`
4.9

Cool, now `OC[C@@H]1[C@H](O)[C@H](O)CN1Cc1ccccc1`
217

New cases:
Entry `CN1C[C@@H](O)[C@@H](O)[C@H]1CO` has what IC50?
13.6

Next record, please: `CCN1C[C@@H](O)[C@@H](O)[C@H]1CO`
14.3

Follow-up entry: O[C@H]1[C@H]2[C@H](O)CCCN2C[C@H]1O [SW, Swainsonine, reference compound]
0.082

Another compound to look at: `CCCCN1C[C@@H](O)[C@@H](O)[C@H]1CO`
25.5

Now give it for CC(O)C1[C@H](O)[C@H](O)CN1CC1CC1 (stereo partly drawn) too.
193

How about this compound: CC(O)C1[C@H](O)[C@H](O)CN1CC1CCCCC1 (stereo partly drawn)
157

Also `CCCN1C[C@@H](O)[C@@H](O)[C@H]1CO` ?
19.2
